Hey, just so you know, these numbers are from paper PMC2864739.

- system: HIV-1 envelope glycoprotein gp120 (IIIB) (HIV-1 IIIB (HXB2 clone entry), UniProt P04578)
- protocol text: SPR; gp120 (IIIB) coupled covalently to a CM5 chip; D7 or D7 mutants at 25 and 100 nM flowed over; Biacore X; 10 mM HEPES pH 7.5, 100 mM NaCl, 0.05% P20; 30 µl/min; association 3 min, dissociation 15 min; simultaneous fit of association and dissociation
- measurement setup: both partners purified

binder | koff
VHH D7 Trp96→Ala (VHH, PDB 2xa3 holds D7 with five framework changes) with the stated CDR3 mutation; Chothia numbering) VHH: AVQLVESGGGLAQAGGSLRLSCTVSGRTSSSHDMGWFRQAPGKEREFVAAISWSGGTTNYADSVKGRFAISKDNAKNAVSLQMNSLKPEDTAVYYCAAKARPLRYSDNPSNSDYNYWGQGTQVTVSS | 0.00313 s⁻¹
VHH D7 double mutant Asn101→Tyr/Tyr102→Asp (VHH, PDB 2xa3 holds D7 with five framework changes) with the stated CDR3 mutations; Chothia numbering; also called double mutant Asn^101Tyr^102) VHH: AVQLVESGGGLAQAGGSLRLSCTVSGRTSSSHDMGWFRQAPGKEREFVAAISWSGGTTNYADSVKGRFAISKDNAKNAVSLQMNSLKPEDTAVYYCAAKWRPLRYSDNPSNSDYYDWGQGTQVTVSS | 3.3e-05 s⁻¹
